Please respond with reported MMAD for every item in the list.
assay method text: MSLI test of formulations made from micronisation trial batches, Example 7
Assay type: physicochemical
experimental conditions: T = 0; 20 μg dose in 25 mg powder, 0.15% magnesium stearate, gelatin capsules
Give me the value, and tack the unit on after it.

Below is a list of compounds. For each, state its recorded MMAD.
1. C[N+]1(C)CCC(OC(=O)C(O)(c2ccccc2)C2CCCC2)C1.[Br-] (stereo not drawn) [Formulation E3]
2. C[N+]1(C)CCC(OC(=O)C(O)(c2ccccc2)C2CCCC2)C1.[Br-] (stereo not drawn) [Formulation E1]
3. C[N+]1(C)CCC(OC(=O)C(O)(c2ccccc2)C2CCCC2)C1.[Br-] (stereo not drawn) [Formulation C1]

output:
["3.2 μm", "3.3 μm", "3.9 μm"]

###

What Sympatec sizing d90 was measured for each of the following?
assay method text: Sympatec sizing of micronised glycopyrrolate batches, after micronisation and on storage
Assay type: physicochemical
experimental conditions: following micronisation
Give bare numbers, in μm.

# example entries with known answers
input: Given C[N+]1(C)CCC(OC(=O)C(O)(c2ccccc2)C2CCCC2)C1.[Br-] (stereo not shown) [Batch A] , state its recorded Sympatec sizing d90.
output: 3.6

input: Repeat for the following compound: C[N+]1(C)CCC(OC(=O)C(O)(c2ccccc2)C2CCCC2)C1.[Br-] (stereo not shown) [Remicronised Batch C]
output: 4.5

input: Also C[N+]1(C)CCC(OC(=O)C(O)(c2ccccc2)C2CCCC2)C1.[Br-] (stereo not shown) [Batch B] , if possible.
output: 4.8

Attention now shifts to the item below.
input: I'd like to know its Sympatec sizing d90. The compound in question is C[N+]1(C)CCC(OC(=O)C(O)(c2ccccc2)C2CCCC2)C1.[Br-] (stereo not shown) [Batch C]
output: 4.8

###

Please provide measured Sympatec sizing d50 for the entries that follow.
assay method text: Sympatec sizing of micronised glycopyrrolate batches, after micronisation and on storage
Assay type: physicochemical
experimental conditions: following micronisation
Numbers only, in μm.

For the 3 compounds below, give their Sympatec sizing d50 values.
1. C[N+]1(C)CCC(OC(=O)C(O)(c2ccccc2)C2CCCC2)C1.[Br-] (stereo not shown) [Batch A]
2. C[N+]1(C)CCC(OC(=O)C(O)(c2ccccc2)C2CCCC2)C1.[Br-] (stereo not shown) [Batch C]
3. C[N+]1(C)CCC(OC(=O)C(O)(c2ccccc2)C2CCCC2)C1.[Br-] (stereo not shown) [Batch B]

output:
[1.8, 2.3, 2.4]

input: # query: Sympatec sizing d50 of entry C[N+]1(C)CCC(OC(=O)C(O)(c2ccccc2)C2CCCC2)C1.[Br-] (stereo not shown) [Remicronised Batch C]
output: 2.4

###

assay method text: Particle sizing of micronised and conditioned glycopyrrolate batches, Example 7
Type: physicochemical
experimental conditions: micronised drug powder
In plain terms, low D10, meaning strictly below 1 μm, gives MET, and everything else gives NOT MET.

Here's what some known entries look like.
input: Here's an entry: C[N+]1(C)CCC(OC(=O)C(O)(c2ccccc2)C2CCCC2)C1.[Br-] (stereo not drawn) [Formulation A2] . Is its D10 below 1 μm?
output: NOT MET

input: Next: C[N+]1(C)CCC(OC(=O)C(O)(c2ccccc2)C2CCCC2)C1.[Br-] (stereo not drawn) [Formulation C1]
output: MET

input: What about C[N+]1(C)CCC(OC(=O)C(O)(c2ccccc2)C2CCCC2)C1.[Br-] (stereo not drawn) [Formulation A1] ?
output: MET

input: Now consider C[N+]1(C)CCC(OC(=O)C(O)(c2ccccc2)C2CCCC2)C1.[Br-] (stereo not drawn) [Formulation E2] .
output: NOT MET

Next:
input: Please state whether D10 is below 1 μm for C[N+]1(C)CCC(OC(=O)C(O)(c2ccccc2)C2CCCC2)C1.[Br-] (stereo not drawn) [Formulation C2]
output: NOT MET

input: Again, but for C[N+]1(C)CCC(OC(=O)C(O)(c2ccccc2)C2CCCC2)C1.[Br-] (stereo not drawn) [Formulation A3]
output: NOT MET

input: And what about the molecule C[N+]1(C)CCC(OC(=O)C(O)(c2ccccc2)C2CCCC2)C1.[Br-] (stereo not drawn) [Formulation E3] ?
output: NOT MET

input: What would you report for C[N+]1(C)CCC(OC(=O)C(O)(c2ccccc2)C2CCCC2)C1.[Br-] (stereo not drawn) [Formulation C3] ?
output: NOT MET

###

assay method text: MSLI test of formulations made from micronisation trial batches, Example 7
Type: physicochemical
experimental conditions: T = 2 wks; 20 μg dose in 25 mg powder, 0.15% magnesium stearate, gelatin capsules
property label: % FPD (%)
Give bare numbers, in %.

A selection of reference data follows.
input: Which value of % FPD has been reported for C[N+]1(C)CCC(OC(=O)C(O)(c2ccccc2)C2CCCC2)C1.[Br-] (stereo not shown) [Formulation E1] in the records?
output: 33.3

input: Continue with C[N+]1(C)CCC(OC(=O)C(O)(c2ccccc2)C2CCCC2)C1.[Br-] (stereo not shown) [Formulation C2]
output: 34.0

input: // same read-out, input: C[N+]1(C)CCC(OC(=O)C(O)(c2ccccc2)C2CCCC2)C1.[Br-] (stereo not shown) [Formulation C3]
output: 37.9

Could you tell me % FPD for each of these compounds? They are listed below.
1. C[N+]1(C)CCC(OC(=O)C(O)(c2ccccc2)C2CCCC2)C1.[Br-] (stereo not shown) [Formulation E3]
2. C[N+]1(C)CCC(OC(=O)C(O)(c2ccccc2)C2CCCC2)C1.[Br-] (stereo not shown) [Formulation A1]
3. C[N+]1(C)CCC(OC(=O)C(O)(c2ccccc2)C2CCCC2)C1.[Br-] (stereo not shown) [Formulation C1]
4. C[N+]1(C)CCC(OC(=O)C(O)(c2ccccc2)C2CCCC2)C1.[Br-] (stereo not shown) [Formulation A3]

output:
32.7
30.5
35.5
31.5

###

assay method text: Particle sizing of micronised and conditioned glycopyrrolate batches, Example 7
Assay type: physicochemical
experimental conditions: micronised drug powder
property label: D50 (μm)
Answers are plain numbers, in μm.

input: I have this molecule here, C[N+]1(C)CCC(OC(=O)C(O)(c2ccccc2)C2CCCC2)C1.[Br-] (stereo not drawn) [Formulation E3] , and I need its recorded D50.
output: 3.79

input: Repeat with C[N+]1(C)CCC(OC(=O)C(O)(c2ccccc2)C2CCCC2)C1.[Br-] (stereo not drawn) [Formulation E2]
output: 3.61

input: Next: C[N+]1(C)CCC(OC(=O)C(O)(c2ccccc2)C2CCCC2)C1.[Br-] (stereo not drawn) [Formulation A1]
output: 1.95

input: Likewise for C[N+]1(C)CCC(OC(=O)C(O)(c2ccccc2)C2CCCC2)C1.[Br-] (stereo not drawn) [Formulation A3] ?
output: 4.03

input: What do you have for C[N+]1(C)CCC(OC(=O)C(O)(c2ccccc2)C2CCCC2)C1.[Br-] (stereo not drawn) [Formulation E1] ?
output: 2.47

input: Next: C[N+]1(C)CCC(OC(=O)C(O)(c2ccccc2)C2CCCC2)C1.[Br-] (stereo not drawn) [Formulation A2]
output: 3.89

input: And for C[N+]1(C)CCC(OC(=O)C(O)(c2ccccc2)C2CCCC2)C1.[Br-] (stereo not drawn) [Formulation C3] ?
output: 3.97

input: And what about the molecule C[N+]1(C)CCC(OC(=O)C(O)(c2ccccc2)C2CCCC2)C1.[Br-] (stereo not drawn) [Formulation C2] ?
output: 3.76

Continue with the next molecule.
input: D50 for C[N+]1(C)CCC(OC(=O)C(O)(c2ccccc2)C2CCCC2)C1.[Br-] (stereo not drawn) [Formulation C1] ?
output: 2.41

###

assay method text: MSLI test of formulations made from micronisation trial batches, Example 7
Assay type: physicochemical
experimental conditions: T = 2 wks; 20 μg dose in 25 mg powder, 0.15% magnesium stearate, gelatin capsules
property label: MMAD (μm)
Numbers only, in μm.

Solved entries:
input: Field request: MMAD | item: C[N+]1(C)CCC(OC(=O)C(O)(c2ccccc2)C2CCCC2)C1.[Br-] (stereo not shown) [Formulation C1]
output: 4.0

input: Another: C[N+]1(C)CCC(OC(=O)C(O)(c2ccccc2)C2CCCC2)C1.[Br-] (stereo not shown) [Formulation A1]
output: 3.2

input: Request: C[N+]1(C)CCC(OC(=O)C(O)(c2ccccc2)C2CCCC2)C1.[Br-] (stereo not shown) [Formulation E3]
output: 3.7

input: For C[N+]1(C)CCC(OC(=O)C(O)(c2ccccc2)C2CCCC2)C1.[Br-] (stereo not shown) [Formulation E1] then?
output: 3.4

Give MMAD for each of the items listed below.
1. C[N+]1(C)CCC(OC(=O)C(O)(c2ccccc2)C2CCCC2)C1.[Br-] (stereo not shown) [Formulation C3]
2. C[N+]1(C)CCC(OC(=O)C(O)(c2ccccc2)C2CCCC2)C1.[Br-] (stereo not shown) [Formulation C2]

output:
3.4
3.6

input: Value lookup for MMAD; key = C[N+]1(C)CCC(OC(=O)C(O)(c2ccccc2)C2CCCC2)C1.[Br-] (stereo not shown) [Formulation A3]
output: 3.1
